# SUBJECT_OF_TEST: Integrin alpha-4 (Homo sapiens)
# ASSAY_OVERVIEW: inhibition in human VLA-4 binding assay, primary screen, VLA-4 allosteric modulator project, MLPCN library, flow cytometry, VLA-4 expressing cells (AID 2557)
# CONDITION_DESCRIPTION: ligand binding flow cytometry, hits give high values, about 7 µM as worked out from the volumes in the protocol
Hit rate of the full screen: of about 330,000 compounds, about 650 (0.2%) were called active. Shown is part of a subset that was picked to be rich in actives.
If the reported inhibition equals or exceeds 10%, assign condition met. If not, assign condition not met.

{"COMPOUND": "Cc1nc(NC(=O)C2CCCCC2)sc1C", "CLASSIFICATION": "condition not met"}
{"COMPOUND": "CSCc1cc(N(C)C)nc(SCc2ccc(Cl)cc2Cl)n1", "CLASSIFICATION": "condition not met"}
{"COMPOUND": "O=C(Nc1cccc(-c2cccc(Cl)c2)c1)C1CCN(C2CCC2)CC1", "CLASSIFICATION": "condition not met"}
{"COMPOUND": "CCC(C)(C)NC(=O)C(c1cccc(OC)c1OC)N(CC(C)C)C(=O)CCC(=O)Nc1cc(C)on1 (stereo unspecified)", "CLASSIFICATION": "condition not met"}
{"COMPOUND": "NC(=O)c1ccsc1NC(=O)c1ccco1", "CLASSIFICATION": "condition not met"}
{"COMPOUND": "COc1ccc2c3c1O[C@H]1C[C@@H](O)C=C[C@@]31CCN(C)C2", "CLASSIFICATION": "condition met"}
{"COMPOUND": "CC1CC(C)CN(S(=O)(=O)c2cccc(C(=O)N3C(=O)c4cccc(N)c4C3=O)c2)C1 (stereo unspecified)", "CLASSIFICATION": "condition not met"}
{"COMPOUND": "OCC[C@H]1C[C@H](O)[C@@H](O)[C@]2(CCc3ccccc3O2)O1", "CLASSIFICATION": "condition not met"}
{"COMPOUND": "CCOC(=O)c1ccc(N2C(=O)CC(N3CCC(C(=O)OCC)CC3)C2=O)cc1 (stereo unspecified)", "CLASSIFICATION": "condition met"}
{"COMPOUND": "CC(=O)NCC(=O)N(C)C(C(=O)Nc1ccc2c(c1)OCCO2)c1ccccc1 (stereo unspecified)", "CLASSIFICATION": "condition met"}

Is it the case that `O=C(Nn1c(-c2ccccc2)nc2ccccc2c1=O)c1ccc([N+](=O)[O-])cc1` has inhibition reaching or exceeding 10%?
condition met

Is it the case that `CCOC(=O)N1CCC(c2cc(=O)n(-c3ccccc3)[nH]2)CC1` has inhibition reaching or exceeding 10%?
condition not met

Is it the case that `COc1ccc(OCC(=O)NNC(=O)C2CCC2)cc1` has inhibition reaching or exceeding 10%?
condition met

Is it the case that `O=C(COC(=O)c1ccco1)NCc1ccc(Cl)cc1` has inhibition reaching or exceeding 10%?
condition not met

Is it the case that `CC/C(O)=C1\C(=O)CC(C)(C)CC1=NCCc1nc2ccccc2[nH]1` has inhibition reaching or exceeding 10%?
condition met

Is it the case that `CCC/C(O)=C1\C(=O)CC(C)(C)CC1=Nc1ccccc1OC` has inhibition reaching or exceeding 10%?
condition met

###

# SUBJECT_OF_TEST: Integrin alpha-4 (Homo sapiens) (UniProt P13612)
# Sequence (P13612 whole entry, looked up): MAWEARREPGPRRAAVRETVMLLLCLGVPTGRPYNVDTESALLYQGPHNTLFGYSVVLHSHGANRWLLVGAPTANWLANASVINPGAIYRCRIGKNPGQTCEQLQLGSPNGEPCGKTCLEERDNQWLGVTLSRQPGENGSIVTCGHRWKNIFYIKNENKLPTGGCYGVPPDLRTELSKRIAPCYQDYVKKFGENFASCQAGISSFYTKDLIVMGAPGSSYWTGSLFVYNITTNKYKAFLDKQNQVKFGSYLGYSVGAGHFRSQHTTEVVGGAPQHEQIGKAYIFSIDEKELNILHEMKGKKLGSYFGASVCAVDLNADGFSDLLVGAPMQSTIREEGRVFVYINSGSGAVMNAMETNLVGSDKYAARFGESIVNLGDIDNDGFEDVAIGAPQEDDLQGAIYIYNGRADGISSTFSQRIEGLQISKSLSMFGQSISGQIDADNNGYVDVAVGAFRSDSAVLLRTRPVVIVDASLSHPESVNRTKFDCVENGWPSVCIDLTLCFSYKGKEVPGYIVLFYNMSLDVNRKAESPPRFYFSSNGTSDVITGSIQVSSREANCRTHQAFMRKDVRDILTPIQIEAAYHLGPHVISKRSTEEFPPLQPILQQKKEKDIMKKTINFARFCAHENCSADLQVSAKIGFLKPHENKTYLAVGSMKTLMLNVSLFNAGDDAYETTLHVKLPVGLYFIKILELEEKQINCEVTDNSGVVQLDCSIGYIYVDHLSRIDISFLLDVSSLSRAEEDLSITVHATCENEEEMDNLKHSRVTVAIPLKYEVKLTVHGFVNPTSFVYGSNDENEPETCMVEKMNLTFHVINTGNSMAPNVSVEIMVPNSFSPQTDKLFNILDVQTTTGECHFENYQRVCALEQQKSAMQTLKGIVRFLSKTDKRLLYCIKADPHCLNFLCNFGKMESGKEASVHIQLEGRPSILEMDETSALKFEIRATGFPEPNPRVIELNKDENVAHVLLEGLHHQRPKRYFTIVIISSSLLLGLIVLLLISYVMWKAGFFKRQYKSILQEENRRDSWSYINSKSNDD
# ASSAY_OVERVIEW: inhibition in human VLA-4 binding assay, primary screen, VLA-4 allosteric modulator project, MLPCN library, flow cytometry, VLA-4 expressing cells (AID 2557)
# CONDITION_DESCRIPTION: ligand binding flow cytometry, about 7 µM as worked out from the volumes in the protocol
About 650 (0.2%) of roughly 330,000 compounds were called active. Cut-off read from the data, not from the text of the source: active = inhibition above about 50%; inactive = the rest. The entries come from a sample that favours actives as a whole.
Respond only with the outcome that fits, drawn from True (active), False (inactive)

Worked examples, 8 compounds total:
{"COMPOUND": "CNC1(c2nnnn2-c2c(C)cccc2C)CCOC(C)(C)C1 (stereo unspecified)", "SUBJECT_OF_TEST": "Integrin alpha-4 (Homo sapiens) (UniProt P13612)", "CLASSIFICATION": "False"}
{"COMPOUND": "Cn1cc(CN2CCC(C(O)CCc3ccccc3)CC2)c(-c2ccccc2F)n1 (stereo unspecified)", "SUBJECT_OF_TEST": "Integrin alpha-4 (Homo sapiens) (UniProt P13612)", "CLASSIFICATION": "False"}
{"COMPOUND": "CC(=O)NC12CC3CC(C1)CC(C(=O)N1CCN(S(=O)(=O)c4cccs4)CC1)(C3)C2", "SUBJECT_OF_TEST": "Integrin alpha-4 (Homo sapiens) (UniProt P13612)", "CLASSIFICATION": "True"}
{"COMPOUND": "O=C(O)CC(Cc1ccccc1)C(=O)Nc1ccc([N+](=O)[O-])cc1 (stereo unspecified)", "SUBJECT_OF_TEST": "Integrin alpha-4 (Homo sapiens) (UniProt P13612)", "CLASSIFICATION": "False"}
{"COMPOUND": "Cc1ccc(S(=O)(=O)N(Cc2ccccc2)c2ccccn2)cc1[N+](=O)[O-]", "SUBJECT_OF_TEST": "Integrin alpha-4 (Homo sapiens) (UniProt P13612)", "CLASSIFICATION": "False"}
{"COMPOUND": "CC1(C(=O)NCCc2c[nH]c3ccccc23)C=CC2(CCCCC2)N1C(=O)c1ccccc1 (stereo unspecified)", "SUBJECT_OF_TEST": "Integrin alpha-4 (Homo sapiens) (UniProt P13612)", "CLASSIFICATION": "True"}
{"COMPOUND": "CC(C)C[C@@H](CO)N1CCN(Cc2ccc(O)cc2)CCC1=O", "SUBJECT_OF_TEST": "Integrin alpha-4 (Homo sapiens) (UniProt P13612)", "CLASSIFICATION": "False"}
{"COMPOUND": "COc1ccc(Nc2cc(Sc3ccc(OC)cc3)ncn2)cc1", "SUBJECT_OF_TEST": "Integrin alpha-4 (Homo sapiens) (UniProt P13612)", "CLASSIFICATION": "False"}

// param item: `Cc1cc(C(=O)OCC(=O)NCc2ccco2)c(C)n1-c1ccccc1` ; yields the recorded call
True

// param item: COCCOC(=O)C1=C(C)NC(=O)NC1c1ccc(Cl)cc1 (stereo unspecified) ; yields the recorded call
False

// param item: Cc1cc(C)nc(/N=C2\NC(=O)CC(C(=O)O)N2c2ccc(Cl)cc2Cl)n1 (stereo unspecified) ; yields the recorded call
False

// param item: `S=C(Nc1cccnc1)Nc1ccccn1` ; yields the recorded call
True

// param item: `CC[C@@H]1CCCCc2ccccc2[C@@H](C(=O)C[C@H](O)CC(C)=O)OC1=O` ; yields the recorded call
False

// param item: `COC(=O)c1cc(NS(=O)(=O)c2ccc3c(c2)c(=O)n(C)c(=O)n3C)cc(C(=O)OC)c1` ; yields the recorded call
False

// param item: N#CCC(=O)NC1CCC(CC2CCC(NC(=O)CC#N)CC2)CC1 (stereo unspecified) ; yields the recorded call
False

// param item: `COC(=O)[C@@H]1C[C@@]2(O)[C@@H](O)[C@@H](O)[C@@H](O)C[C@H]2N1Cc1ccc(C)s1` ; yields the recorded call
False

###

# SUBJECT_OF_TEST: Integrin alpha-4 (Homo sapiens) (UniProt P13612)
# ASSAY_OVERVIEW: inhibition in human VLA-4 binding assay, primary screen, VLA-4 allosteric modulator project, MLPCN library, flow cytometry, VLA-4 expressing cells (AID 2557)
# CONDITION_DESCRIPTION: ligand binding flow cytometry, hits give high values, about 7 µM as worked out from the volumes in the protocol
Among all 330,000 compounds or so, about 650 (0.2%) were called active. Many of the other results were omitted from the sample, so actives are more common in it than they were.
For each entry below, report its inhibition value.
Numbers only, in %.

Worked examples follow.
{"MOLECULE": "O=C(CCS(=O)(=O)c1ccc(Br)cc1)NCCc1ccc(Cl)cc1", "RECORDED_NUMBER": -4}
{"MOLECULE": "C=CCSc1nnc2c(n1)-c1cccc3cccc-2c13", "RECORDED_NUMBER": -4.2}
{"MOLECULE": "O=C(Cn1c(NCCO)nc2ccccc21)c1ccc(Cl)cc1Cl", "RECORDED_NUMBER": 62.2}
{"MOLECULE": "Cc1cnc(NC(=O)C2CCCC2)s1", "RECORDED_NUMBER": 92.5}
{"MOLECULE": "COc1cccc(N2C(=O)CC(N3CCc4ccccc4C3)C2=O)c1 (stereo not given)", "RECORDED_NUMBER": -4.39}
{"MOLECULE": "Cc1cnc(NC(=O)c2ccccn2)s1", "RECORDED_NUMBER": 11.4}
{"MOLECULE": "Cc1cccc(N(CC(O)CN(C)C)S(=O)(=O)c2ccccc2)c1 (stereo not given)", "RECORDED_NUMBER": 2.19}
{"MOLECULE": "Cc1ccc(N(CC(O)CN2CCCC2)S(=O)(=O)c2ccccc2)cc1 (stereo not given)", "RECORDED_NUMBER": 4.52}
{"MOLECULE": "COc1cccc(-c2cccc(NC(=O)C3CCN(C4CCC4)CC3)c2)c1", "RECORDED_NUMBER": 58.8}
{"MOLECULE": "COc1cccc(N2CCN(C3CC(=O)N(c4ccc(Cl)cc4)C3=O)CC2)c1 (stereo not given)", "RECORDED_NUMBER": 94.7}

# batch size: 3; output inhibition per entry
1. COC(=O)c1ccc(CN(c2ccccc2OC)S(=O)(=O)c2cccs2)o1
2. N#CC1(NC(=O)COc2ccc3oc4ccccc4c3c2)CCCCC1
3. COc1ccccc1NC(=O)c1cc(Cl)nnc1Cl

1. 12.4
2. 17.8
3. 50.6

# batch size: 2; output inhibition per entry
1. Cc1ccc(C)c(N2CCN(C(=O)CCc3nc4ccccc4[nH]3)CC2)c1
2. COc1cccc(N2C(=O)CC(N3CCN(S(=O)(=O)c4ccccc4)CC3)C2=O)c1 (stereo not given)

8.4
12.7

Data origin: PubChem BioAssay AID2557
